# System: OVCAR-4 ovarian
# Procedure Summary: NCI tumour cell line growth inhibition, 48 h
Result Type: TGI

{"columns": ["Compound", "System Tested", "TGI"],
 "data": [
  ["O=C1C=C2S[C@H]3C[C@]2(C=C1Br)c1c(c(O)c2c4c1=NCCC=4C=N2)N3", "OVCAR-4 ovarian", "0.985 µM"],
  ["N=C(N)n1ncc(Cl)c(Cl)c1=O", "OVCAR-4 ovarian", "3.41 µM"],
  ["C=CCC(C(=O)OC)C1(C(=O)OC)c2[nH]c3ccccc3c2CCN1Cc1ccccc1 (stereo not given)", "OVCAR-4 ovarian", "> 100 µM"],
  ["O=c1[nH]c(=S)[nH]c2c1sc(=S)n2-c1ccccc1", "OVCAR-4 ovarian", "> 100 µM"],
  ["CCOC(=O)C1=C(Nc2ccccc2)OC/C1=N\\NC(=O)Cc1ccccc1", "OVCAR-4 ovarian", "> 50 µM"]
]}

Query block: Please list TGI recorded for the compound C/C(CC(O)(C(F)(F)F)C(F)(F)F)=N\N
Result block: > 10 µM

Query block: Please list TGI recorded for the compound CCOP(=O)(CCP(=O)(OCC)OCC)OCC.C[CH2][Sn]([Cl])([Cl])[CH2]C
Result block: > 71.9 µM
